# Test system: KRAS PDC tumor spheroids (HUVEC+MSC), viability;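 also: spheroids exposed to compounds for seven days before readout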
# Assay Name: Anticancer human tumor 254851-301-R-J1-PDC patient-derived colon carcinoma cell line growth inhibition [KRAS2]
# Test Settings: second compound 0.316 µM; first compound 0.0316 µM; hits give low values
Field: label. Allowed values: true (viability, T/C < 90%) or false (viability, T/C >= 90%).

Example entries and their recorded answers appear below.
>  <Compound>
CC(C)NCC(C(=O)N1CCN(c2ncnc3c2C(C)CC3O)CC1)c1ccc(Cl)cc1 (stereo not given) + CC1OCC2(CCN(c3cnc(Sc4ccnc(N)c4Cl)c(N)n3)CC2)C1N

>  <Discrete Label>
false

$$$$
>  <Compound>
Cn1nccc1Nc1nccc(-c2cc3c(s2)C(C)(C)N(CCN2CCOCC2)C3=O)n1 + CC1OCC2(CCN(c3cnc(Sc4ccnc(N)c4Cl)c(N)n3)CC2)C1N

>  <Discrete Label>
true

$$$$
>  <Compound>
Cn1ncnc1[C@H]1c2n[nH]c(=O)c3cc(F)cc(c23)N[C@@H]1c1ccc(F)cc1 + CNCc1ccccc1-c1csc(C(C)Nc2nc(C)nc3cc(OC)c(OC)cc23)c1

>  <Discrete Label>
false

$$$$
>  <Compound>
COc1cc(Nc2ncc3c(n2)-c2ccc(Cl)cc2C(c2c(F)cccc2OC)=NC3)ccc1C(=O)O + C=CC(=O)N1CCN(c2nc(=O)n(-c3c(C)ccnc3C(C)C)c3nc(-c4c(O)cccc4F)c(F)cc23)C(C)C1

>  <Discrete Label>
true

$$$$

Request: Determine whether this compound shows viability, T/C lower than 90% (ties excluded): COc1cc2nccc(Oc3ccc(NC(=O)C4(C(=O)Nc5ccc(F)cc5)CC4)cc3)c2cc1OC + CNCc1ccccc1-c1csc(C(C)Nc2nc(C)nc3cc(OC)c(OC)cc23)c1
Response: false

Request: Determine whether this compound shows viability, T/C lower than 90% (ties excluded): CN(C)C/C=C/C(=O)Nc1cc2c(Nc3ccc(F)c(Cl)c3)ncnc2cc1O[C@H]1CCOC1 + CNCc1ccccc1-c1csc(C(C)Nc2nc(C)nc3cc(OC)c(OC)cc23)c1
Response: true

Request: Determine whether this compound shows viability, T/C lower than 90% (ties excluded): CC(=O)Nc1cccc(-n2c(=O)n(C3CC3)c(=O)c3c(Nc4ccc(I)cc4F)n(C)c(=O)c(C)c32)c1 + CNCc1ccccc1-c1csc(C(C)Nc2nc(C)nc3cc(OC)c(OC)cc23)c1
Response: true

Request: Determine whether this compound shows viability, T/C lower than 90% (ties excluded): Cn1ncnc1[C@H]1c2n[nH]c(=O)c3cc(F)cc(c23)N[C@@H]1c1ccc(F)cc1 + CC1OCC2(CCN(c3cnc(Sc4ccnc(N)c4Cl)c(N)n3)CC2)C1N
Response: true

Request: Determine whether this compound shows viability, T/C lower than 90% (ties excluded): CC(=O)Nc1cccc(-n2c(=O)n(C3CC3)c(=O)c3c(Nc4ccc(I)cc4F)n(C)c(=O)c(C)c32)c1 + COc1cc2nc(C)nc(NC(C)c3cc(N)cc(C(F)(F)F)c3)c2cc1OC1CCOC1
Response: true

Request: Determine whether this compound shows viability, T/C lower than 90% (ties excluded): CC1COCCN1c1cc(-c2ccnn2C)c2ccnc(-c3ccn[nH]3)c2n1 (stereo not given) + C=CC(=O)N1CCN(c2nc(=O)n(-c3c(C)ccnc3C(C)C)c3nc(-c4c(O)cccc4F)c(F)cc23)C(C)C1
Response: false

Request: Determine whether this compound shows viability, T/C lower than 90% (ties excluded): CC(=O)OC12COC1CC(O)C1(C)C(=O)C(O)C3=C(C)C(OC(=O)C(O)C(NC(=O)OC(C)(C)C)c4ccccc4)CC(O)(C(OC(=O)c4ccccc4)C21)C3(C)C (stereo not given) + COc1cc2nc(C)nc(NC(C)c3cc(N)cc(C(F)(F)F)c3)c2cc1OC1CCOC1
Response: false

Request: Determine whether this compound shows viability, T/C lower than 90% (ties excluded): CCNC(=O)CC1N=C(c2ccc(Cl)cc2)c2cc(OC)ccc2-n2c(C)nnc21 (stereo not given) + CC1OCC2(CCN(c3cnc(Sc4ccnc(N)c4Cl)c(N)n3)CC2)C1N
Response: false
